Here the recorded EC50 is given for each entry.
Molecular target: MCH receptor (Macaca fascicularis, UniProt A0A2K5VT41)
Sequence (A0A2K5VT41 70-422): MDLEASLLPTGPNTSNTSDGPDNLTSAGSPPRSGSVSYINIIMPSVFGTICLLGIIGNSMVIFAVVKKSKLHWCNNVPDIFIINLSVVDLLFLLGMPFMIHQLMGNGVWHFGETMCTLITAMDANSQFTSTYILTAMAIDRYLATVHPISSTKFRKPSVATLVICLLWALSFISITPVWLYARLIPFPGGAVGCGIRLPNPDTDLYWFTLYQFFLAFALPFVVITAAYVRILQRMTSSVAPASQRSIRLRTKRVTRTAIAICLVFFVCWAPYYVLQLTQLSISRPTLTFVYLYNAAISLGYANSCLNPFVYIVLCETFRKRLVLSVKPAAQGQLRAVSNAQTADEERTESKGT
Experiment: Calcium mobilization assay (Example 6)
Type: cell-based, Cynomolgus macaque
measuredEndpoint: EC50

| compound | measured |
| --- | --- |
| COc1cc(N2CCN(C(C)c3ccnc4ccccc34)CC2)ccc1Cl (centres unmarked) [Example 2] | < 1 µM |
| COc1cc(N2CCN(C(C)c3ccnc(C)c3C)CC2)ccc1Cl (centres unmarked) [Example 1] | < 1 µM |
